- Test system: Plasmodium falciparum
- method_notes: Screen against P. falciparum Asexual Blood Stage (ABS), at 5uM
- Type: functional, Dd2
- condition_summary: tested at 5 uM
About 2,100 (3.2%) of roughly 65,000 compounds showed an effect of 50% or more. The median lay at about -52%. For the sample, strong results were picked, then their nearest neighbours and some compounds at random.
experimental_endpoint: INHIBITION

compound: O=C(Nc1cccc(F)c1)N1CCC(CO)(Nc2ccccc2)CC1
result_value: -35.15%
--
compound: CC(C)CN1CCC2(CC1)C(=O)Nc1ccc(C(=O)NC(C)C)cc12
result_value: -39.5%
--
compound: CCC(CN1CCN(C)CC1)NC(=O)C1(c2cccc(F)c2)CC1 (centres undefined)
result_value: 77.1%
--
compound: COCC(=O)N1CC[C@H]2[C@H]1CCN2CC(C)C
result_value: -34.8%
--
compound: CC[C@H](C)[C@@H](CO)NC(C)Cc1ccc(Cl)cc1 (some centres undefined)
result_value: 18.9%
--
compound: COCCN1CCOCC12CCN(C(=O)c1ccncc1)CC2
result_value: -98.9%
--
compound: COc1ccc(CC(=O)N2CCN(Cc3ccco3)C[C@@H]2C)cc1
result_value: -22.3%
--
compound: Cc1cccc(CN2C[C@@H]3CC[C@H]2CN(Cc2[nH]cnc2C)C3)n1
result_value: 50.9%
--
compound: CN(C)CCNC(=O)CCn1ncc2c(Cl)cccc21
result_value: 71%
--
compound: Cc1nc(CN)cc(N2CCC(O)(c3ccc(Cl)cc3)CC2)n1
result_value: 72.2%
--
compound: O=C1NC2(CCc3ccccc31)CCN(Cc1cccnc1)C2 (centres undefined)
result_value: -111%
--
compound: COc1ccccc1OCCN(C)c1cc(C)nc(N)n1
result_value: 70.2%
--
compound: Cc1nc(CCN)cc(N2CCC(O)(c3ccc(Cl)cc3)CC2)n1
result_value: 91.7%
--
compound: Cc1cc(N(C)CCOc2ccccc2F)nc(N)n1
result_value: 85.3%
--
compound: Cn1cc(CN2C[C@@H]3[C@@H](C2)OCC(=O)N3Cc2ccncc2)cn1
result_value: -72.9%
--
compound: Cc1cccnc1CCNC(=O)[C@@]12CNC[C@@H]1CN(S(C)(=O)=O)C2
result_value: -50.4%
--
compound: O=C(C1CCC1)N1CCC2(CC1)CNCCO2
result_value: -16.3%
--
compound: Cc1n[nH]c(C)c1CC(=O)N1CCN(C)C2(CCNC(=O)CC2)C1 (centres undefined)
result_value: -115%
--
compound: Cn1cc(C2=CCN(CCC(=O)NCc3ccc(Cl)cc3)CC2)cn1
result_value: 5%
--
compound: COc1ccccc1OCCCN(C)c1cc(C)nc(N)n1
result_value: 73.5%
--
compound: Cc1csc([C@@H]2C[C@@H]3CCN(Cc4cc(C)on4)C[C@H]3O2)n1
result_value: -19.3%
--
compound: COCCO[C@H]1COCCN(C2CCN(C)CC2)C1
result_value: -110%
--
compound: Cc1ccc2c(n1)N(CC(C)C)CCN(S(C)(=O)=O)C2
result_value: -82.4%
--
compound: COCCN(C)C(C)Cc1ccccc1OC (centres undefined)
result_value: 23.6%

---

- Test system: Plasmodium falciparum
- method_notes: Screen against P. falciparum Asexual Blood Stage (ABS), at 5uM
- Format: functional, Dd2
- condition_summary: tested at 5 uM
Out of some 65,000 compounds screened, about 2,100 (3.2%) showed an effect of 50% or more. The median lay at about -52%. The list comes from a sample in which strong results are over-represented; it also holds close analogues and randomly drawn compounds.

compound: CC(NCC1CCN(CCO)CC1)c1cccc(Cl)c1 (centres undefined)
INHIBITION [%]: 84.8

compound: Cc1cc(CN2CCC(C3CCN(CCc4ccccc4)CC3)C2)[nH]n1 (centres undefined)
INHIBITION [%]: 93.5

compound: CC(Cc1ccc(Cl)cc1)N(C)C(=O)NCCS(C)(=O)=O (centres undefined)
INHIBITION [%]: -65.7

compound: CNC(=O)[C@H]1C[C@@H]2CCN(Cc3ccncc3)C[C@H]2O1
INHIBITION [%]: -70.6

compound: Cc1nc(CN2CCO[C@H]3[C@@H](Oc4ccccn4)CC[C@@H]32)cs1
INHIBITION [%]: -47

compound: COc1ccc(C(=O)C2CCCN(Cc3cc(C)n[nH]3)C2)c(OC)c1 (centres undefined)
INHIBITION [%]: -4.88

compound: c1ccc(-c2cc(CN3C[C@H]4CC[C@H]3C4)on2)cc1
INHIBITION [%]: 5.39

compound: COc1ccnc(CN2CCCC(CCc3ccc(F)cc3)C2)c1OC (centres undefined)
INHIBITION [%]: 88.9

compound: CC(NCC1CCN(CCO)CC1)c1ccc(Cl)cc1 (centres undefined)
INHIBITION [%]: 93.9

compound: Cc1ccc(N2C[C@H]3CCN(Cc4ccncc4)C[C@H]3C2)nn1
INHIBITION [%]: -4.71

compound: O=C([C@H]1CN(Cc2ccncc2)C[C@H]2OCC[C@@H]12)N1CCCCO1
INHIBITION [%]: -89.5

compound: c1ccc(-c2cc(CN3C[C@H]4CC[C@@H](C3)N(CC3CCC3)C4)on2)cc1
INHIBITION [%]: 88.4

compound: CCC(CC)C(=O)N1CCOC2(CNC2)C1
INHIBITION [%]: -94.6

compound: O=C(Cc1ccncc1)N1C[C@@H]2CC[C@H]1CN(Cc1cccnc1)C2
INHIBITION [%]: 10.9

compound: CC(NCC1CCN(CCO)CC1)c1ccc(F)c(Cl)c1 (centres undefined)
INHIBITION [%]: 84.1

compound: COc1ccnc(CN2CCCC(CCc3ccccc3)C2)c1OC (centres undefined)
INHIBITION [%]: 90.1

compound: CCOc1ccc(Br)cc1C1CCCCN1 (centres undefined)
INHIBITION [%]: 78.2

compound: COc1ccc(Cl)cc1CC(=O)N1CCN(CCO)CC1
INHIBITION [%]: -118

compound: Cc1cccc(CN2CCN3C[C@H](Oc4cccnc4)C[C@H]3C2)n1
INHIBITION [%]: -91.1

compound: CCOc1ccc(Br)cc1C1CCCN1 (centres undefined)
INHIBITION [%]: 72.9

compound: CCC[C@H]1CN(c2nc(CO)cs2)C[C@@H]1NC(=O)C1(COC)CC1
INHIBITION [%]: 71.7

compound: CN1CC=C(c2noc(CCC(=O)N3CCc4ccccc4C3)n2)CC1
INHIBITION [%]: -27.1

compound: CCOc1ccc(Cl)cc1C1CCCN1 (centres undefined)
INHIBITION [%]: 87.7

compound: CN(CC1CCN(CCO)CC1)CC(O)c1ccc(F)c(F)c1 (centres undefined)
INHIBITION [%]: 76.5
